Molecular target: KOP receptor (Homo sapiens, UniProt P41145)
Construct: expressed in transfected cells
Sequence (P41145 whole entry): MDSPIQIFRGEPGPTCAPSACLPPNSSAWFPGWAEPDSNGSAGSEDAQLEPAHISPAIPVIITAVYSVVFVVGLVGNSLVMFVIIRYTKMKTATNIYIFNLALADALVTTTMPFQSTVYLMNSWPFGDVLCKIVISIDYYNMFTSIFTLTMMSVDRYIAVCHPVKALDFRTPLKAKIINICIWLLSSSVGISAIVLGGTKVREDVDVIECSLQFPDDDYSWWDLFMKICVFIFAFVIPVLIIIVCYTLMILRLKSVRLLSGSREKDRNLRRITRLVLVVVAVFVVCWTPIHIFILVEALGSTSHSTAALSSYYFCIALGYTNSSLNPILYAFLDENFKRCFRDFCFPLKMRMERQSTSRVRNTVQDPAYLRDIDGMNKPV
Type: biochemical
The molecules listed here are annotated with their KOP % stim.
Kindly answer with a numeric value in %, unit omitted.

Worked examples, 6 molecules total:
chemicalSmiles | KOP % stim [%]
O=C(Cc1ccc2c(c1)OCO2)O[C@@]12CCC(=O)[C@@H]3Oc4c(O)ccc5c4[C@@]31CCN(CC1CC1)[C@@H]2C5 | 41.1
O=C(Cc1ccc(Cl)cc1)O[C@@]12CCC(=O)[C@@H]3Oc4c(O)ccc5c4[C@@]31CCN(CC1CC1)C2C5 | 37.1
O=C(Cc1ccccc1F)O[C@@]12CCC(=O)[C@@H]3Oc4c(O)ccc5c4[C@@]31CCN(CC1CC1)[C@@H]2C5 | 43.8
Cc1ccc(CC(=O)O[C@@]23CCC(=O)[C@@H]4Oc5c(O)ccc6c5[C@@]42CCN(CC2CC2)[C@@H]3C6)cc1 | 11.5
COc1ccc(CC(=O)O[C@@]23CCC(=O)[C@@H]4Oc5c(O)ccc6c5[C@@]42CCN(CC2CC2)[C@@H]3C6)cc1 | 6.5
COc1ccccc1CC(=O)O[C@@]12CCC(=O)[C@@H]3Oc4c(O)ccc5c4[C@@]31CCN(CC1CC1)[C@@H]2C5 | 50.4

# input molecule: O=C(Cc1ccccc1)O[C@@]12CCC(=O)[C@@H]3Oc4c(O)ccc5c4[C@@]31CCN(CC1CC1)[C@@H]2C5 ; wanted: its KOP % stim 44.5

Then what about the molecule COc1cccc(CC(=O)O[C@@]23CCC(=O)[C@@H]4Oc5c(O)ccc6c5[C@@]42CCN(CC2CC2)C3C6)c1 ? 46.3

Then what about the molecule Cc1cccc(CC(=O)O[C@@]23CCC(=O)[C@@H]4Oc5c(O)ccc6c5[C@@]42CCN(CC2CC2)[C@@H]3C6)c1 ? 46.4

Then what about the molecule O=C(Cc1ccccc1Cl)O[C@@]12CCC(=O)[C@@H]3Oc4c(O)ccc5c4[C@@]31CCN(CC1CC1)[C@@H]2C5 ? 31.3

====

Biological target: DOP receptor (Homo sapiens)
Construct: expressed in transfected cells
Sequence (P41143 whole entry): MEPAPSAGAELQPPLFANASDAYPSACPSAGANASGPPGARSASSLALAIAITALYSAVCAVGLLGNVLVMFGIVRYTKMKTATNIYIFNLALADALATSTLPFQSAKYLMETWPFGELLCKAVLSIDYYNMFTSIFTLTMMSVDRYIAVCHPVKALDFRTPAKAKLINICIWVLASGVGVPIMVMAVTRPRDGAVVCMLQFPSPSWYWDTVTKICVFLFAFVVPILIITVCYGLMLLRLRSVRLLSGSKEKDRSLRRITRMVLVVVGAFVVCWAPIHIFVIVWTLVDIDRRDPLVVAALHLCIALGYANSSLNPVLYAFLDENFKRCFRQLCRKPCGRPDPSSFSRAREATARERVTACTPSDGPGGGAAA
Assay: [35S]GTPγS binding stimulation (agonist), CHO membranes
Type: biochemical
Details: [35S]GTPγS stimulation relative to standard agonist DPDPE
attributeMeasured: DOP % stim (%)
Kindly answer with a numeric value in %, unit omitted.

Worked examples, 5 molecules total:
molecule | attributeMeasured | measured
COc1ccccc1CC(=O)O[C@@]12CCC(=O)[C@@H]3Oc4c(O)ccc5c4[C@@]31CCN(CC1CC1)[C@@H]2C5 [Compound 7h] | DOP % stim | 19.2
Cc1cccc(CC(=O)O[C@@]23CCC(=O)[C@@H]4Oc5c(O)ccc6c5[C@@]42CCN(CC2CC2)[C@@H]3C6)c1 [Compound 7d] | DOP % stim | 15.8
Cc1ccccc1CC(=O)O[C@@]12CCC(=O)[C@@H]3Oc4c(O)ccc5c4[C@@]31CCN(CC1CC1)[C@@H]2C5 [Compound 7c] | DOP % stim | 12.6
O=C(Cc1ccccc1)O[C@@]12CCC(=O)[C@@H]3Oc4c(O)ccc5c4[C@@]31CCN(CC1CC1)[C@@H]2C5 [Compound 7a] | DOP % stim | 30.5
COc1ccc(CC(=O)O[C@@]23CCC(=O)[C@@H]4Oc5c(O)ccc6c5[C@@]42CCN(CC2CC2)[C@@H]3C6)cc1 [Compound 7f] | DOP % stim | 18.4

Test system DOP receptor (Homo sapiens); read-out DOP % stim; what value for O=C(Cc1ccc(Cl)cc1)O[C@@]12CCC(=O)[C@@H]3Oc4c(O)ccc5c4[C@@]31CCN(CC1CC1)C2C5 [Compound 7j] ? 37.2

Then what about the molecule COc1cccc(CC(=O)O[C@@]23CCC(=O)[C@@H]4Oc5c(O)ccc6c5[C@@]42CCN(CC2CC2)C3C6)c1 [Compound 7e] ? 35.7

Then what about the molecule Cc1ccc(CC(=O)O[C@@]23CCC(=O)[C@@H]4Oc5c(O)ccc6c5[C@@]42CCN(CC2CC2)[C@@H]3C6)cc1 [Compound 7b] ? 27.0
